Attribution: ChEMBL document CHEMBL1201862

Tested on: HL-60
Method Description: NCI tumour cell line growth inhibition, 48 h
Activity calls are given as the source filed them. Cut-off read from the data, not from the text of the source: active = GI50 up to about 1.1 µM and inactive = higher.
API: response.call in class 1 (active), class 0 (inactive)

Compound: CC1(CCCO)CCCCCCCCCC(C)(CCCO)C1=O (stereo not drawn)
Discrete Label: class 0

Prompt: Could you kindly confirm the outcome this assay logged for COC1C=COC2(C)Oc3c(C)c(O)c4c(O)c(c(/C=N/N5CCN(N)CC5)c(O)c4c3C2=O)NC(=O)C(C)=CC=CC(C)C(O)C(C)C(O)C(C)C(OC(C)=O)C1C (stereo not drawn) ?
Completion: class 0

Prompt: Per the records of this test, what outcome belongs to `O=C1C(=O)N(c2cc(Cl)ccc2Cl)C(=O)C(=O)C1c1nc2ccccc2s1` ?
Completion: class 0

Prompt: For `CCn1c2nc(=O)n(CCCCCCCCSC(c3ccccc3)(c3ccccc3)c3ccccc3)c(=O)c-2nc2ccccc21` , what call appears in the results of this test?
Completion: class 1

Prompt: So what was the verdict on COc1ccc(N2C(=O)CS(=O)(=O)C2c2cccc(Oc3ccccc3)c2)cc1 (stereo not drawn) in this test?
Completion: class 0

Prompt: In this assay, the call recorded for C[C@H]1C[C@@H]2[C@H]([C@@H](O)C[C@@]3(C)[C@H]2CC[C@]3(O)C(=O)CO)[C@@]2(C)C=CC(=O)C=C12 [METHYLPREDNISOLONE] was what?
Completion: class 0

Prompt: Hello, I am checking results. What call was entered for `CN(C)C(=S)/N=c1\ss/c(=N\C(=S)N(C)C)n1-c1ccc2c(c1)OCO2` ?
Completion: class 0

Prompt: What was the test verdict on `CC1=C(C)C1[N+](=O)[O-]` ?
Completion: class 0
